target: KRas G12C (Homo sapiens, UniProt P01116, G12C); test: Inhibition of KRas G12C in NCI-H358 cells measured by phosphorylated ERK (Phospho-ERK); settings: 3 hours, 4 parameter fit, read-out: IC50 (pERK(Thr202/Tyr204) signal normalized with GAPDH)
Kindly state IC50 for each of the entries shown.

Problem: Look up IC50: C=C(F)C(=O)N1CCN(c2nc(OC3CN4CCC3CC4)nc3c2CCN(c2cccc4ccc(F)c(Cl)c24)C3)C[C@@H]1CC#N (stereo partly drawn) [Example 154]
Result: 1000 to 10000 nM

Problem: Look up IC50: C=C(F)C(=O)N1CCN(c2nc(OCC34CCCN3CCC4)nc3c2CCN(c2cccc4ccccc24)C3)C[C@@H]1CC#N [Example 146]
Result: 0.1 to 1000 nM

Problem: Look up IC50: C=C(F)C(=O)N1CCN(c2nc(OC3CN(C)C3)nc3c2CCN(c2cccc4ccc(F)c(Cl)c24)C3)C[C@@H]1CC#N [Example 168]
Result: 1000 to 10000 nM

Problem: Look up IC50: C=C(F)C(=O)N1CCN(c2nc(OC3CN(CCC#N)C3)nc3c2CCN(c2cccc4ccc(F)c(Cl)c24)C3)C[C@@H]1CC#N [Example 157]
Result: 1000 to 10000 nM

Problem: Look up IC50: C=C(F)C(=O)N1CCN(c2nc(O[C@H]3CCC[C@@H]3N(C)C)nc3c2CCN(c2cccc4ccc(F)c(Cl)c24)C3)C[C@@H]1CC#N [Example 153]
Result: 1000 to 10000 nM

Problem: Look up IC50: CN1CC(F)(F)C[C@H]1COc1nc2c(c(N3CCN(C(=O)/C=C/CN4CC(F)C4)[C@@H](CC#N)C3)n1)CCN(c1cccc3cccc(Cl)c13)C2 [Example 57]
Result: 1000 to 10000 nM

* * *

Kindly state pIC50 for each of the entries shown.
biological target: KRas G12C (Homo sapiens, UniProt P01116, G12C); experiment: Inhibition of KRas G12C in NCI-H358 cells measured by phosphorylated ERK (Phospho-ERK); settings: 3 hours, 4 parameter fit, read-out: IC50 (pERK(Thr202/Tyr204) signal normalized with GAPDH)
pIC50: −log10 of the molar value.

Problem: Look up pIC50: C=C(F)C(=O)N1CCN(c2nc(OCC34CCCN3C(=O)CC4)nc3c2CCN(c2cccc4ccc(F)c(Cl)c24)C3)C[C@@H]1CC#N (stereo partly drawn)
Result: 5.00 to 6.00

Problem: Look up pIC50: `C=C(F)C(=O)N1CCN(c2nc(OC[C@@H]3COCCN3Cc3ccccc3)nc3c2CCN(c2cccc4ccc(F)c(Cl)c24)C3)C[C@@H]1CC#N`
Result: 6.00 to 10.00

Problem: Look up pIC50: `C=C(F)C(=O)N1CCN(c2nc(OCC3COC3)nc3c2CCN(c2cccc4ccc(F)c(Cl)c24)C3)C[C@@H]1CC#N`
Result: 6.00 to 10.00

Problem: Look up pIC50: `C=C(F)C(=O)N1CCN(c2nc(OCC34CC(N(C)C)(C3)C4)nc3c2CCN(c2cccc4ccc(F)c(Cl)c24)C3)C[C@@H]1CC#N`
Result: 6.00 to 10.00

Problem: Look up pIC50: `C=C(F)C(=O)N1CCN(c2nc(OC[C@@H]3CCCN3C)nc3c2CCN(c2cccc4ccc(F)c(Cl)c24)C3)C[C@@H]1CC#N`
Result: 6.00 to 10.00

Problem: Look up pIC50: C=C(F)C(=O)N1CCN(c2nc(OCC(C)C(F)F)nc3c2CCN(c2cccc4ccc(F)c(Cl)c24)C3)C[C@@H]1CC#N (stereo partly drawn)
Result: 5.00 to 6.00

* * *

target: KRas G12C (Homo sapiens, UniProt P01116, C118S/C51S/C80L/G12C); construct: GDP-loaded K-Ras (1-169) G12C, C51S, C80L, C118S; assay: KRas G12C Modification Assay (LCMS detection of covalent adduct); format: binding; conditions: 5 μM concentration for 3 hours; LC/MS of intact protein; higher POC = higher degree of modification
metric: POC (normalized percent of control; degree of covalent modification of KRas G12C)

Below, each entry is followed by its recorded POC (normalized percent of control; degree of covalent modification of KRas G12C) result.
| molecule | reported |
| --- | --- |
| Cc1cccc2cccc(N3CCc4c(nc(OC[C@@H]5CCCN5C)nc4N4CCN(C(=O)/C=C/CCl)[C@@H](CC#N)C4)C3)c12 | C (“C”>50% POC) |
| Cc1cccc2cccc(N3CCc4c(nc(OC[C@@H]5CCCN5C)nc4N4CCN(C(=O)C#CCO)[C@@H](CC#N)C4)C3)c12 | C (“C”>50% POC) |
| C=C(OC)C(=O)N1CCN(c2nc(OC[C@@H]3CCCN3C)nc3c2CCN(c2cccc4cccc(C)c24)C3)C[C@@H]1CC#N | A (“A”≤25% POC) |
| C=C(COC)C(=O)N1CCN(c2nc(OC[C@@H]3CCCN3C)nc3c2CCN(c2cccc4cccc(Cl)c24)C3)C[C@@H]1CC#N | A (“A”≤25% POC) |
| Cc1cccc2cccc(N3CCc4c(nc(OC[C@@H]5CCCN5C)nc4N4CCN(C(=O)/C=C/C(F)F)[C@@H](CC#N)C4)C3)c12 | C (“C”>50% POC) |
| Cc1cccc2cccc(N3CCc4c(nc(OC[C@@H]5CCCN5C)nc4N4CCN(C(=O)/C=C/c5ccccn5)[C@@H](CC#N)C4)C3)c12 | C (“C”>50% POC) |

Please look at the following molecule next.
Problem: Look up POC (normalized percent of control; degree of covalent modification of KRas G12C): `Cc1cccc2cccc(N3CCc4c(nc(OC[C@@H]5CCCN5C)nc4N4CCN(C(=O)/C=C/C(=O)N(C)C)[C@@H](CC#N)C4)C3)c12`
Result: C (“C”>50% POC)

* * *

Target: KRas G12C (Homo sapiens, UniProt P01116, C118S/C51S/C80L/G12C)
Construct: GDP-loaded K-Ras (1-169) G12C, C51S, C80L, C118S
Assay: KRas G12C Modification Assay (LCMS detection of covalent adduct)
Format: binding
Details: 5 μM concentration for 3 hours; LC/MS of intact protein; higher POC = higher degree of modification
Procedure: A 10 μL aliquot of each protein solution was then transferred to a 384 well microtiter plate. Initial compound stocks were generated at fifty times their desired final assay concentration in DMSO. […] Final data analysis was a multistep process in the Spotfire® data analysis software package. Briefly, each protein mass was calculated as a percent of the total signal of that sample, that percentage was then normalized to the percentage of signal of the protein in the absence of reactive compounds. […]
metric: POC (normalized percent of control; degree of covalent modification of KRas G12C)

| molecule | reported |
| --- | --- |
| CN1CCC[C@H]1COc1nc2c(c(N3CCN(C(=O)/C=C/CN4CCC(F)C4)[C@@H](CC#N)C3)n1)CCN(c1cccc3cccc(Cl)c13)C2 (stereo partly drawn) | C (“C”>50% POC) |
| [2H]C([2H])=C([2H])C(=O)N1CCN(c2nc(OC[C@@H]3CCCN3C)nc3c2CCN(c2cccc4ccccc24)C3)C[C@@H]1CC#N | C (“C”>50% POC) |

* * *

biological target: KRas G12C (Homo sapiens, UniProt P01116, C118S/C51S/C80L/G12C); construct: GDP-loaded K-Ras (1-169) G12C, C51S, C80L, C118S; test: KRas G12C Modification Assay (LCMS detection of covalent adduct); assay type: binding; settings: 5 μM concentration for 3 hours; LC/MS of intact protein; higher POC = higher degree of modification
metric: POC (normalized percent of control; degree of covalent modification of KRas G12C)

| inputSmiles | reported |
| --- | --- |
| Cc1cccc(N2CCc3c(nc(OC[C@@H]4CCCN4C)nc3N3CCN(C(=O)/C=C\Cl)[C@@H](CC#N)C3)C2)c1C | C (“C”>50% POC) |
| CN1CCC[C@H]1COc1nc2c(c(N3CCN(C(=O)/C=C/CN4CC(F)C4)[C@@H](CC#N)C3)n1)CCN(c1cccc3cccc(Cl)c13)C2 | C (“C”>50% POC) |
| CN1CCC[C@H]1COc1nc2c(c(N3CCN(C(=O)C#CCO)[C@@H](CC#N)C3)n1)CCN(c1cccc3cccc(Cl)c13)C2 | C (“C”>50% POC) |
